For each entry below, report its inhibition at 1 µM value.
molecular target: human recombinant serotonin (5-Hydroxytryptamine) 5-HT2A receptor (Homo sapiens); construct: expressed in transfected cells; host or cells: Chinese hamster ovary (CHO-K1) cells; assay: Serotonin 5-HT2A radioligand binding ([3H]Ketanserin); conditions: read-out: Inhibition of ligand binding, Serotonin 5-HT2A (percent inhibition of specific binding), compound at 1 μM
Sequence (P28223 whole entry): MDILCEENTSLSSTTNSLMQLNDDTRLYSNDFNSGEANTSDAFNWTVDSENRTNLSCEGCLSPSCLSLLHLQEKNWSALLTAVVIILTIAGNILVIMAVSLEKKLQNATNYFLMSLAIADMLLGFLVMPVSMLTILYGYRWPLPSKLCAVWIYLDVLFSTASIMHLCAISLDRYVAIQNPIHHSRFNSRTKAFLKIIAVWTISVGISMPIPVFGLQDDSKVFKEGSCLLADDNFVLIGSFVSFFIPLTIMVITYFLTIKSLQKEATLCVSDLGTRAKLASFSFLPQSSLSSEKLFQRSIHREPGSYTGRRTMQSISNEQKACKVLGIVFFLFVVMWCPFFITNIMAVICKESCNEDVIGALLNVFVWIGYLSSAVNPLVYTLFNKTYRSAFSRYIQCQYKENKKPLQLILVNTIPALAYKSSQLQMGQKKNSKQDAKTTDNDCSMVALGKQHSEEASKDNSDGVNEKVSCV
# value in %; strip the unit string

Suppose we examine the compound C/C(=C\n1c2c(c3cc(C)ccc31)CN(C)CC2)c1cc(F)c(F)cc1Cl ; what inhibition at 1 µM value has been reported?
97

Suppose we examine the compound C/C(=C\n1c2c(c3cc(Cl)ccc31)CN(C)CC2)c1ccc(C)nc1 ; what inhibition at 1 µM value has been reported?
101

Suppose we examine the compound CCOC(=O)/C=C(/Cn1c2c(c3cc(C)ccc31)CN(C)CC2)c1ccc(F)cc1 ; what inhibition at 1 µM value has been reported?
100

Suppose we examine the compound C/C(=C/n1c2c(c3cc(C)ccc31)CN(C)CC2)c1ccccc1Cl ; what inhibition at 1 µM value has been reported?
98

Suppose we examine the compound COc1ccc(C(C)(O)Cn2c3c(c4cc(C)ccc42)CN(C)CC3)cc1 (centres unmarked) ; what inhibition at 1 µM value has been reported?
97

Suppose we examine the compound CN1CCc2c(c3ccc(Cl)cc3n2CC(C)(O)c2ccncc2)C1 (centres unmarked) ; what inhibition at 1 µM value has been reported?
82

Suppose we examine the compound COc1ccc(/C(C)=C/n2c3c(c4cc(Cl)ccc42)CN(C)CC3)cc1F ; what inhibition at 1 µM value has been reported?
100

Suppose we examine the compound CCN1CCc2c(c3cc(C)ccc3n2CC(O)c2ccc(C)cc2)C1 (racemic) ; what inhibition at 1 µM value has been reported?
102

Suppose we examine the compound C/C(=C\n1c2c(c3cc(Cl)ccc31)CN(C)CC2)c1cccnc1 ; what inhibition at 1 µM value has been reported?
95

Suppose we examine the compound Cc1ccc2c(c1)c1c(n2C#Cc2ccc(F)cc2)CCN(C)C1 ; what inhibition at 1 µM value has been reported?
99

Suppose we examine the compound Cc1ccc(C(O)Cn2c3c(c4cc(C)ccc42)CN(C)CC3)cc1 (racemic) ; what inhibition at 1 µM value has been reported?
100

Suppose we examine the compound C/C(=C\n1c2c(c3ccc(C(F)(F)F)cc31)CN(C)CC2)c1ccc(F)cc1 ; what inhibition at 1 µM value has been reported?
100

Suppose we examine the compound C/C(=C/n1c2c(c3cc(Cl)ccc31)CN(C)CC2)c1ccccc1F ; what inhibition at 1 µM value has been reported?
91

Suppose we examine the compound CN1CCc2c(c3c(Cl)c(Cl)ccc3n2CC(C)(O)c2ccncc2)C1 (centres unmarked) ; what inhibition at 1 µM value has been reported?
71

Suppose we examine the compound CN1CCc2c(c3cc(Cl)ccc3n2C2=C(c3cccnc3)CCCC2)C1 ; what inhibition at 1 µM value has been reported?
46

Suppose we examine the compound C/C(=C\n1c2c(c3cc(C)ccc31)CN(C)CC2)c1ccncc1 ; what inhibition at 1 µM value has been reported?
98

Suppose we examine the compound CCN1CCc2c(c3ccccc3n2CC(O)c2ccc(C)cc2)C1 (racemic) ; what inhibition at 1 µM value has been reported?
80

Suppose we examine the compound COc1ccc(/C(C)=C/n2c3c(c4cc(Cl)ccc42)CN(C)CC3)cc1 ; what inhibition at 1 µM value has been reported?
100

Suppose we examine the compound C/C(=C\n1c2c(c3cc(Cl)ccc31)CN(C)CC2)c1ccc(Cl)cc1 ; what inhibition at 1 µM value has been reported?
101

Suppose we examine the compound CCC/C=C(/Cn1c2c(c3cc(Cl)ccc31)CN(C)CC2)c1ccc(F)cc1 ; what inhibition at 1 µM value has been reported?
100

Suppose we examine the compound C/C(=C\n1c2c(c3cc(Cl)ccc31)CN(C)CC2)c1ccccc1F ; what inhibition at 1 µM value has been reported?
98

Suppose we examine the compound CN1CCc2c(c3cccc(Cl)c3n2C[C@@](C)(O)c2ccncc2)C1 ; what inhibition at 1 µM value has been reported?
87

Suppose we examine the compound CCCCC(O)(Cn1c2c(c3cc(Cl)ccc31)CN(C)CC2)c1ccc(F)cc1 (centres unmarked) ; what inhibition at 1 µM value has been reported?
98

Suppose we examine the compound CN1CCc2c(c3cc(Cl)ccc3n2CC(O)c2cccnc2)C1 (centres unmarked) ; what inhibition at 1 µM value has been reported?
68

Suppose we examine the compound Cc1ccc2c(c1)c1c(n2/C=C(\CC(=O)O)c2ccc(F)cc2)CCN(C)C1 ; what inhibition at 1 µM value has been reported?
93

Suppose we examine the compound C=C(Cn1c2c(c3cc(C)ccc31)CN(C)CC2)c1ccc(F)cc1 ; what inhibition at 1 µM value has been reported?
100

Suppose we examine the compound C/C(=C\n1c2c(c3ccccc31)CN(C)CC2)c1ccc(F)cc1 ; what inhibition at 1 µM value has been reported?
97

Suppose we examine the compound CNC(=O)c1ccc2c(c1)c1c(n2C#Cc2ccc(F)cc2)CCN(C)C1 ; what inhibition at 1 µM value has been reported?
34

Suppose we examine the compound C/C(=C\n1c2c(c3cc(C)ccc31)CN(C)CC2)c1ccc(F)c(F)c1 ; what inhibition at 1 µM value has been reported?
98
